For each of the compounds below, state its Bedstraw plant response rating.
Test system: bedstraw
procedure details: Test B pre/postemergence bedstraw
Format: in vivo, Galium aparine
assay context: Rate 62 g/ha, Postemergence; scale of 0 to 10 where 0 is no effect and 10 is complete control
Numbers only.

Past entries and their recorded results:
Please provide the recorded Bedstraw plant response rating for CC(C)N(C(=O)n1oc(=O)n(COCc2ccccc2)c1=O)c1ccc(F)cc1 [Compound 261] , tested on bedstraw. 0

Follow-up item: Cc1nsc(C)c1-n1c(=O)on(C(=O)N(c2ccc(F)cc2F)C(C)C)c1=O [Compound 158] 0

Follow-up item: CC(C)N(C(=O)n1oc(=O)n(CC#N)c1=O)c1ccc(F)cc1 [Compound 395] 0

Follow-up item: CC(C)N(C(=O)n1oc(=O)n(C2(C)CC2)c1=O)c1ccc(F)cc1F [Compound 363] 4

Then there is this compound:
Please provide the recorded Bedstraw plant response rating for Cc1nc(C)c(-n2c(=O)on(C(=O)N(c3ccc(F)cc3)C(C)C)c2=O)s1 [Compound 198] , tested on bedstraw. 0

Measured values drawn from patent US6737383B1 for this set.
